# measured-target: T1, purified ALK protein (BLitz, Table 20) (Homo sapiens (Human), UniProt Q9UM73 19-1038, limits assumed)
# T1 construct: also called purified ALK proteins
# T1 sequence (Q9UM73 19-1038 limits assumed): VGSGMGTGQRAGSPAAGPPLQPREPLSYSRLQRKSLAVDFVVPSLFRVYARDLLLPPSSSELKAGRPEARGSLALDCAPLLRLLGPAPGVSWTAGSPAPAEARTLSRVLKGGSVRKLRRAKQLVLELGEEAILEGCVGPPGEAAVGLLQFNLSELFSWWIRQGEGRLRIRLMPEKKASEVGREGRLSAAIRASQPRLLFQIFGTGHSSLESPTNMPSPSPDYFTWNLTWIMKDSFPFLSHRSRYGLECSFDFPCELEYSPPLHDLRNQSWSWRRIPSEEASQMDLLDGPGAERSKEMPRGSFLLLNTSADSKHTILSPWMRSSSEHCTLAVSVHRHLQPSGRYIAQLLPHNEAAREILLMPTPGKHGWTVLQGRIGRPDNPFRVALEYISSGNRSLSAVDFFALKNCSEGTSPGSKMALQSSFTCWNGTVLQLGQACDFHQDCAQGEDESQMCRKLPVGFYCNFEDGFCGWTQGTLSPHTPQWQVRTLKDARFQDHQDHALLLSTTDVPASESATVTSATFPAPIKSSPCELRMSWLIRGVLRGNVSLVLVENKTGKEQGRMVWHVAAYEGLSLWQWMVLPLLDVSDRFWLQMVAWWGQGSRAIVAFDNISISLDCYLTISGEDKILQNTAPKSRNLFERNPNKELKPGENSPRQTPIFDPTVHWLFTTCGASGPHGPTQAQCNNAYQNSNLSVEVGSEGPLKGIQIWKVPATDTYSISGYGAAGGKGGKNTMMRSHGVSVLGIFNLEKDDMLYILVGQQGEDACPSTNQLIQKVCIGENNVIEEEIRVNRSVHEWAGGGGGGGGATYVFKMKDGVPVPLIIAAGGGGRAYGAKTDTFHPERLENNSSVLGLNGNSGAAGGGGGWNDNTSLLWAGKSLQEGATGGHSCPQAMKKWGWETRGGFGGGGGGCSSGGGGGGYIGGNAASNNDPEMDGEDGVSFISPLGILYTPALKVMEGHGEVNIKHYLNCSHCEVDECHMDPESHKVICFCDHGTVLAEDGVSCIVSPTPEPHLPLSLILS
# method: BLI (BLitz), mAb on Protein A tip, purified ALK in solution
assay-readout: Kd (nM)
Numeric answer only, unit nM assumed.

binder: Ab384 (antibody, V domains shown, humanized) VH: EVQLVQSGAEVKKPGSSVKLSCKASGYTFTSYWMHWVRQAPGQGLEWIGYIKPSSGYTKYNQKFKDKATLTADKSTSTAYMELSSLRSEDTAVYYCARDYYGSSSWFAYWGQGTLVTVSS VL: EIVMTQSPAFMSVTVGEKVTITCKASQNVGTNVAWYQQKPDQSPKALIYSASYRYSGVPSRFSGSGSGTDFTLTISSLEAEDAATYYCQQYNSYPYMYTFGQGTKLEIK
endpoint-unit: nM
Kd: 201

Look up Kd for this binder: Ab407 (antibody, V domains shown, humanized) VH: QVQLVQSGAEVAKPGSSVKLSCKASGYTFTSYWMHWVKQAPGQGLEWIGYIKPSSGYTKYNQKFKDKATLTADKSTSTAYMELSSLRSEDTAVYYCARDYYGSSSWFAYWGQGTLVTVSS VL: EIVMTQSQATMSTSVGERATLSCKASQNVGTNVAWYQQKPGQSPKALIYSASYRYSGVPARFSGSGSGTDFTLTISSVEPEDFAVYYCQQYNSYPYMYTFGQGTKLEIK 109

Recorded Kd of Ab436 (antibody, V domains shown, humanized) VH: EVQLVQSGPEVKKPGTSVKLSCKASGYTFTSYWMHWVRQARGQRLEWIGYIKPSSGYTKYNQKFKDRATLTADKSTSTAYMELSSLRSEDTAVYYCARDYYGSSSWFAYWGQGTLVTVSS VL: EIVMTQSQATMSTSVGERATLSCKASQNVGTNVAWYQQKPGQSPKALIYGASTRATGVPARFSGSGSGTDFTLTISSVEPEDFAVYYCQQYNSYPYMYTFGQGTKLEIK , please. 120
